- Test system: COLO 205 colon
- Assay Remarks: NCI-60 one-dose screen, 48 h (100 = growth as untreated, 0 = no growth, -100 = all killed)
- Condition Context: 10 µM
About 83,000 compounds went through this panel and 20% of them were active in at least one assay; those are over-represented in the sample as a whole.
Measured Parameter: growth (%)
The response must be a number in % with no trailing unit.

# growth of `COC1=C[C@]23CCC(=O)N2CCc2cc4c(cc2[C@@H]3[C@@H]1OC(=O)CCCC(C)C)OCO4` = 68

Just so you know, measured growth for `Cc1cc2nc3c4ccccc4n(CCO)c3nc2cc1C` came out at 106

For `O=c1[nH]c2ccccc2cc1CSc1ccc(Nc2nccc(-c3ccc(C(F)(F)F)cc3)n2)cc1` the compound record lists growth as 18

The reported growth of the compound `O=C(CSc1nnc(-c2c[nH]c3ccccc23)n1-c1ccccc1)Nc1ccc(C(=O)/C=C/c2ccc(Cl)cc2)cc1` was 89.7

Sample `N#Cc1ccc(-c2nn(-c3ccc(C(=O)O)cc3)cc2CNc2cc(Cl)cc(Cl)c2)cc1` ; growth observed: 109

Data point: `N#Cc1ccc(-c2nn(-c3ccc(C(=O)O)cc3)cc2CNc2cc(Cl)cc(C(F)(F)F)c2)cc1` ; growth = 55.7
